The entries below come with measured Activity values attached.
- Organism: Rattus norvegicus
- ASSAY_TEXT: Antisecretory activity in rat pylorus ligation-induced ulcer model determined by ratio of total acidity inhibition in drug treated to untreated control
- Type: functional
PROPERTY_NAME: Activity

>  <MOLECULE>
O=C(O)[C@@H]1CCC(=O)N1Cc1cccc2ccccc12

>  <ENDPOINT_RESULT>
0.91

$$$$
>  <MOLECULE>
CC(C)(C)OC(=O)[C@@H]1CCC(=O)N1Cc1ccccc1

>  <ENDPOINT_RESULT>
0.52

$$$$
>  <MOLECULE>
CCOC(=O)[C@@H](NC(=O)OCc1ccccc1)C(O)/C=C/c1ccccc1 (stereo not given in full)

>  <ENDPOINT_RESULT>
0.98

$$$$
>  <MOLECULE>
COC(=O)[C@@H]1CCCN1C(=O)c1ccccc1

>  <ENDPOINT_RESULT>
1.14

$$$$
>  <MOLECULE>
COC(=O)[C@@H]1CCCN1C(=O)/C=C/c1ccccc1

>  <ENDPOINT_RESULT>
0.59

$$$$
